System: SNB-75 CNS
Assay: NCI tumour cell line growth inhibition, 48 h

compound	comparative_sign	TGI (µM)
CC(C)(C)c1ccc(OCCCCCCN2CCNCC2)cc1	=	16
CCCCCCCCCCCC(=O)OCCOCCOCCOCCOCCOCc1ccc(OC)cc1	>	100
CCO[C@]12C[C@H](OC)[C@@]3(O)CC(C1[C@H]3OCc1ccccc1)C13C4C2[C@H](OC)C1[C@](COC)(CN4CC)[C@H](O)C[C@@H]3OC (some centres undefined)	>	100
COc1ccc(-c2c(N)n(-c3nc4ccccc4s3)c(=O)c3cc([N+](=O)[O-])ccc23)cc1	=	24.7
O=S(=O)(Sc1ccc(Cl)cc1)c1ccc(Cl)cc1	=	40.5
CNC(=O)OCc1c(COC(=O)NC)c(C)n(-c2ccc(Br)cc2)c1C	=	19.1
Cc1cc(N/N=C/c2nc(-c3ccc(Br)cc3)oc2C)c2cc(Cl)ccc2n1	>	100
COc1cc2c(c(OC)c1OC)C(=O)[C@H](O)[C@H]2NC(N)=O	>	100
CC(C)CC(CC1=CCC2CC1C2(C)C)C1=C(O)C(C)(C)C(=O)C(C)(C)C1=O (centres undefined)	=	9.67

====

Tested on: SNB-19 CNS
Assay: NCI tumour cell line growth inhibition, 48 h
Reported GI50 values for a set of compounds
parameter: GI50

> print(dat)
                                   compound  parameter  meas.value
1  COC(=O)Cn1c2c(c3c(O)cccc31)C(=O)c1ccccc1-2       GI50    > 100 µM
2  COc1cccc(NC(=O)c2sc3nc4c(cc3c2N)CN(Cc2ccccc2)CC4)c1       GI50     4.75 µM
3  CN(C)c1ccc2c(c1)Sc1cc(N(C)C)ccc1N2C(=O)c1ccccc1       GI50     34.2 µM
4  O[C@H]1CO[C@H]2[C@@H]1OC[C@@H]2Oc1ccc(Nc2ccnc(Nc3ccc(O[C@H]4CO[C@H]5[C@@H]4OC[C@@H]5O)c(Cl)c3)n2)cc1Cl       GI50     2.75 µM
5  N#C/C(=C\c1c(-c2ccccc2)[nH]c2ccccc12)S(=O)(=O)c1ccccc1       GI50     7.08 µM
6  O=C(C1CCCCC1)[C@@H]1[C@]2(C(=O)NC3CCCCC32)[C@@H]2CCCN2[C@@]12C(=O)NC1CCC(Cl)CC12 (some centres undefined)       GI50      148 µM
7  Cc1c2cc[n+](CCN3CCCCC3)cc2c(C)c2c1[nH]c1ccc(O)cc12       GI50     1.96 µM
8  Cn1c2c(cc(S(=O)(=O)c3ccccc3)c1=O)CCc1c-2cnn1-c1ccc(Cl)cc1       GI50     2.01 µM
9  O=C(NN1C(=O)CSC12CCCCC2)c1[nH]c2ccc(F)cc2c1-c1ccccc1       GI50     19.8 µM

====

Tested on: SNB-75 CNS
Assay: NCI tumour cell line growth inhibition, 48 h
Reported TGI values for a set of compounds
parameter: TGI

> print(dat)
                                   compound  parameter  meas.value
1  CCOC(=O)c1sc2c(c1OC(=O)c1cccs1)c(=O)n(-c1ccccc1)c(=S)n2-c1ccccc1        TGI    > 100 µM
2  N#Cc1c(N)oc(-c2cccc([N+](=O)[O-])c2)c1C#N        TGI     98.2 µM
3  CN(C)c1ccc(/C=N\NC(=O)CSCC(=O)N/N=C/c2ccc(N(C)C)cc2)cc1        TGI    > 100 µM
4  c1ccc(SC(CCCCC(Sc2ccccc2)Sc2ccccc2)Sc2ccccc2)cc1        TGI    > 100 µM
5  CCCCCCCCCCCCCCCCCC(=O)OCC(COC1OC(COP(=O)(O)O)C(O)C(O)C1O)OC(=O)CCCCCCCCCCCCCCCCC (stereo not given)        TGI     11.5 µM

====

Test system: EKVX NSCLC
Experiment: NCI tumour cell line growth inhibition, 48 h
Reported TGI values for a set of molecules
parameter: TGI

> print(dat)
                                    molecule  meas.value
 1  N=C(N)c1ccc(N2CCCN(c3ccc(C(=N)N)cc3)CC2)cc1    > 100 µM
 2  CCOC(=O)CSc1nc(-c2ccccc2)c(C#N)c(=O)[nH]1    > 100 µM
 3                         Nc1ncnc2[nH]ncc12   > 79.9 µM
 4  O=C1OC(CCCl)(c2ccccc2)CC1CN1CCOCC1 (stereo unspecified)     40.5 µM
 5  C=CC(=O)N1CCN(c2ccc3cccc(NC(=O)c4cnc(C)cn4)c3n2)CC1    > 100 µM
 6  CC(=O)OCC(OC(C)=O)C(OC(C)=O)C(C=NN(C(C)=O)S(=O)(=O)c1ccc(/C=C2\NC(=O)NC2=O)cc1)OC(C)=O (stereo unspecified)    > 100 µM
 7  O=C(c1ccccc1)C(CN1CCOCC1)c1ccccc1 (stereo unspecified)     16.9 µM
 8         CCOC(=O)c1c(N2CCCC2)nsc1Nc1ccccc1    > 100 µM
 9  N#CC(C(=O)CCC(=O)Nc1cccc(Cl)c1)c1ccccc1 (stereo unspecified)    > 100 µM
10  CCC1C(c2cc(OC)c(OC)c(OC)c2)c2cc3c(cc2OC1N1CCCC1)OCO3 (stereo unspecified)     59.8 µM
11   CCOC(=O)/C(C(=S)Nc1ccccc1)=C(/N)N1CCCC1    > 100 µM

====

Tested on: OVCAR-5 ovarian
Assay: NCI tumour cell line growth inhibition, 48 h
Reported GI50 values for a set of molecules
parameter: GI50

> print(dat)
                                   molecule  parameter  meas.value
1  O=[N+]([O-])c1cccc(-c2nc3sccn3c2-c2ccnc(NCCCNS(=O)(=O)c3cccc(F)c3)n2)c1       GI50     7.83 µM
2  CC1=C(CCC(C)N(C)Cc2ccc(OCCCN3CCCC3)cc2)C(C)(C)CCC1 (centres undefined)       GI50      3.2 µM
3  CN(C)c1ccc2c(c1)Sc1cc(N(C)C)ccc1N2C(=O)c1ccccc1       GI50    > 100 µM
4  COc1ccc(C2CC(c3cc(OC)c(OC)c(OC)c3)=NN2C(C)=O)cc1OCC(=O)Nc1nc2ccc(C(F)(F)F)cc2s1 (centres undefined)       GI50     28.2 µM
5    Cc1ccc(NC(=O)/C=C/c2ccccc2)c(C(N)=O)c1       GI50     9.68 µM
6  C=C1CC[C@@H]2[C@](C)(COC(C)=O)[C@@H](O)CC[C@@]2(C)[C@@H]1COc1ccc2ccc(=O)oc2c1       GI50    > 100 µM
7  O=C1c2c(c3c4ccccc4[nH]c3c3ccc4ccccc4c23)C(=O)N1CCN1CCCCC1       GI50     1.52 µM
8  CC(CN1CCN(CCOCCO)CC1)CN1c2ccccc2Sc2ccc(Cl)cc21 (centres undefined)       GI50      2.6 µM
9  Cn1c2c(cc(S(=O)(=O)c3ccccc3)c1=O)CCc1c-2cnn1-c1ccc(Cl)cc1       GI50     3.37 µM

====

Tested on: CCRF-CEM leukemia
Assay: NCI tumour cell line growth inhibition, 48 h; in the data active means GI50 below about 0.43 µM; inactive means the rest
Classes used: active, inactive

compound	cat
CCCn1c(C)nc2c1C(=O)c1ccccc1C2=O	inactive
O=C1C(=O)c2c(nc3ccc(Cl)cn23)-c2ccccc21	active
Cc1c2cc[n+](CCN3CCCCC3)cc2c(C)c2c1[nH]c1ccc(O)cc12	inactive
COc1cccc(NC(=O)c2sc3nc4c(cc3c2N)CN(Cc2ccccc2)CC4)c1	inactive
C=C1CC[C@@H]2[C@](C)(COC(C)=O)[C@@H](O)CC[C@@]2(C)[C@@H]1COc1ccc2ccc(=O)oc2c1	inactive
CC(CN1CCN(CCOCCO)CC1)CN1c2ccccc2Sc2ccc(Cl)cc21 (centres undefined)	inactive
N/C(=N\N=C\c1ccc(-c2ccccc2)cc1)N[N+](=O)[O-]	inactive
c1ccc2c(c1)c(NCCCCN1CCCCC1)cc1c3ccccc3c(NCCCCN3CCCCC3)cc21	inactive
Cc1ccc(NC(=O)/C=C/c2ccccc2)c(C(N)=O)c1	inactive
C=CC(=O)Nc1cccc(C)c1Nc1cc(-c2cccnc2Cc2c(C)c(OC)cc(OC)c2C)ncn1	inactive
C[C@]12CC[C@H]3[C@@H](CCC4=CC(=O)CC[C@@H]43)[C@@H]1CC[C@@H]2OC(=O)CCc1ccccc1	inactive
Cc1cc(N/N=C/c2nc(-c3ccc(Br)cc3)oc2C)c2cc(Cl)ccc2n1	inactive
Cc1cc(NCc2cc(Nc3ccnc4cc(Cl)ccc34)ccc2F)nc(N2CCCC2)n1	active
C[C@@H]1CC[C@H]2C(COCCOCC3=C(C(F)(F)F)O[C@@H]4O[C@@]5(C)CC[C@H]6[C@H](C)CC[C@@H]3[C@@]46OO5)=C(C(F)(F)F)O[C@@H]3O[C@@]4(C)CC[C@@H]1[C@]32OO4	active
COc1cc2nc(N3CCCC3)nc(NCC3CCCCC3)c2cc1OC	inactive
CN(C)CCCN1c2ccccc2CCc2ccc(Cl)cc21	inactive
COc1ccc2cc(-c3ccoc(=O)c3-c3cc(OC)c(OC)c(OC)c3)ccc2c1	active
CC(C)(C)c1n[nH]c(=S)n(/N=C/c2ccc(F)c(Oc3ccccc3)c2)c1=O	inactive
N#C/C(=C\c1c(-c2ccccc2)[nH]c2ccccc12)S(=O)(=O)c1ccccc1	inactive

Every entry's value here was drawn from PubChem BioAssay (NCI).
